# Test target: human mAChR M4 (Homo sapiens)
# Construct: expressed in transfected cells
# Sequence (P08173 whole entry): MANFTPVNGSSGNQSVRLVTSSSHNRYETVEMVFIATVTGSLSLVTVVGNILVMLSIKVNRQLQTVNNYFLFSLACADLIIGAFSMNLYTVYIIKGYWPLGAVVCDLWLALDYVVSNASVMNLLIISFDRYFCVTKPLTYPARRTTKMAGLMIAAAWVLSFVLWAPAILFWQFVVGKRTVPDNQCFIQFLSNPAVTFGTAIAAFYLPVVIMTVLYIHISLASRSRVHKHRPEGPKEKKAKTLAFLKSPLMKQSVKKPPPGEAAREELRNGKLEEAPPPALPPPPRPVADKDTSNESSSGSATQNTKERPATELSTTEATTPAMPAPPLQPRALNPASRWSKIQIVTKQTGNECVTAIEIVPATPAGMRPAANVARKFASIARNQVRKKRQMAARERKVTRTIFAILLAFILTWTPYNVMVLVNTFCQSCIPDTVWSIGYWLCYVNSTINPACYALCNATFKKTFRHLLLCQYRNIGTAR
# Protocol text: mAChR M4 cell-based functional assay (calcium mobilization, CHO-K1 hM4-Gqi5 cells)
# Condition context: positive allosteric modulator activity, increase in the EC20 acetylcholine response, CHO-K1 hM4-Gqi5 cells; read-out: Human M4 EC50
pEC50: −log10 of the molar value.
Assign Met to entries whose pEC50 meets or exceeds 6; assign Not met to the rest.

>>> print(df.to_string())
                                    compound  assigned_category
 0  Cc1cc(C(=O)NCc2cncs2)cnc1N1CCc2ncc(C(F)(F)F)cc2C1                Met
 1  Cc1cc(C(=O)N2CC(Cl)C2)nnc1N1CCc2ncc(N3CCCn4nccc43)cc2C1                Met
 2  Cc1cc(C#N)nnc1N1CCc2ncc(N3CCO[C@H](C)C3)cc2C1                Met
 3          Cc1cc(C#N)cnc1N1CCc2ncc(Br)cc2C1                Met
 4  Cc1cc(C#N)nnc1N1CCc2ncc(Nc3cccnc3F)cc2C1                Met
 5  Cc1cc(C#N)cnc1N1CCc2ncc(-c3c(C)noc3C)cc2C1                Met
 6  Cc1c(C#N)nnc(N2CCc3ncc(Nc4ccnn4C)cc3C2)c1C                Met
 7  [2H]C([2H])([2H])c1cnc2c(c1)CN(c1nnc(C(=O)N3CCCC3)cc1C)CC2            Not met
 8  FC(F)(F)c1cnc2c(c1)CN(c1nc(C3CC3)nc3c1CCCC3)CC2            Not met
 9       Cc1cnc2c(c1)CN(c1nc(C)nc(Cl)c1C)CC2                Met
10  Cc1cc(-c2cnc3c(c2)CN(c2nnc(C(=O)NCc4ccncc4)c(C)c2C)CC3)ccn1                Met
11  Cc1cc(F)c(F)cc1-c1cnc2c(c1)CN(c1ncc(C#N)cc1C)CC2            Not met
12  Cc1cc(C(=O)N2CC(F)C2)nnc1N1CCc2ncc(N3CCCn4nccc43)cc2C1                Met
13  Cc1cc(C(=O)N2CC(Cl)C2)nnc1N1CCc2ncc(-n3cccn3)cc2C1                Met
14  Cc1nc(Cl)c(C)c(N2Cc3cc([N+](=O)[O-])cnc3C(C)C2)n1 (stereo not shown)                Met
15  Cc1cc(C#N)cnc1N1CCc2ncc(OCCOc3ccc(F)cc3)cc2C1            Not met
16  COc1ccc(-c2cnc3c(c2)CN(c2nnc(C#N)c(C)c2C)CC3)cn1                Met
17  Cc1cc(CNC(=O)c2cnc(N3CCc4ncccc4C3)c(C)c2)ccn1            Not met
18  COc1ccc(Oc2cnc3c(c2)CN(c2nnc(C#N)c(C)c2C)CC3)cn1            Not met
